- Test system: biotinyl-Val-oxazolone
- METHOD DESCRIPTION: self-aminoacylation, catalytic enhancement (BVO) (fold over background); higher = more active; k-Seq, kA / k0A0; sequences stand for … in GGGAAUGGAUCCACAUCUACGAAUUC…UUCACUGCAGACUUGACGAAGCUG
Fewer inactive variants are shown than the library holds.
// label = satisfied if self-aminoacylation is not less than 2, otherwise not satisfied

AUUCACCUAGGUCAUCUAGUG [Fam2.2 aminoacylation ribozyme variant] | satisfied

Q: # check: self-aminoacylation of CCACACUUCAAGCAAUCGCGC [Fam1B.1 aminoacylation ribozyme variant] is greater than or equal to 2
Ans: satisfied

Q: Textbook exercise: given the entry CUACUUCCAACAAUAGGUCUG [Fam1A.1 aminoacylation ribozyme variant] , state whether its self-aminoacylation is greater than or equal to 2.
Ans: not satisfied

Q: Exam item: decide whether the reported self-aminoacylation for AUUCAACUAGGUCACCGGGUG [Fam2.2 aminoacylation ribozyme variant] is at least 2.
Ans: satisfied

Q: Please check the record AUUACCCUGGUCAUCAAGUUA [Fam2.1 aminoacylation ribozyme variant] and state if its self-aminoacylation is at or above 2.
Ans: not satisfied

Q: Would you say CCACUUCAAAGAAUCGGUCUG [Fam1A.1 aminoacylation ribozyme variant] shows self-aminoacylation at minimum 2?
Ans: not satisfied
